Measured Purity %, listed per entry.
Test Protocol: Crystal form stability study (influencing factor experiments)
Format: physicochemical
Reported Conditions: 40° C., 30 days, open container
Expressed in %, but write only the number.

Recorded results for 5 molecules are shown here.
* CCc1c(F)ccc2cc(O)cc(-c3nc4c5c(nc(OC[C@@]67CCCN6C[C@H](F)C7)nc5c3F)N3C[C@H]5CC[C@H](N5)[C@H]3CO4)c12 [Crystal form A] | 99.1
* CCc1c(F)ccc2cc(O)cc(-c3nc4c5c(nc(OC[C@@]67CCCN6C[C@H](F)C7)nc5c3F)N3C[C@H]5CC[C@H](N5)[C@H]3CO4)c12 [Crystal form B] | 99.2
* CCc1c(F)ccc2cc(O)cc(-c3nc4c5c(nc(OC[C@@]67CCCN6C[C@H](F)C7)nc5c3F)N3C[C@H]5CC[C@H](N5)[C@H]3CO4)c12 [Crystal form K] | 97.0
* CCc1c(F)ccc2cc(O)cc(-c3nc4c5c(nc(OC[C@@]67CCCN6C[C@H](F)C7)nc5c3F)N3C[C@H]5CC[C@H](N5)[C@H]3CO4)c12 [Crystal form J] | 97.9
* CCc1c(F)ccc2cc(O)cc(-c3nc4c5c(nc(OC[C@@]67CCCN6C[C@H](F)C7)nc5c3F)N3C[C@H]5CC[C@H](N5)[C@H]3CO4)c12 [Crystal form I] | 99.3

Could you now consider this next molecule?
Data request: Look up Purity %: CCc1c(F)ccc2cc(O)cc(-c3nc4c5c(nc(OC[C@@]67CCCN6C[C@H](F)C7)nc5c3F)N3C[C@H]5CC[C@H](N5)[C@H]3CO4)c12 [Crystal form C]
Data returned: 98.5

---

Test Protocol: Crystal form stability study (influencing factor experiments)
Assay type: physicochemical
Reported Conditions: light exposure (4500 Lux), 30 days, open container
Metric Name: Color and state

- CCc1c(F)ccc2cc(O)cc(-c3nc4c5c(nc(OC[C@@]67CCCN6C[C@H](F)C7)nc5c3F)N3C[C@H]5CC[C@H](N5)[C@H]3CO4)c12 [Crystal form J]: Pale yellow solid
- CCc1c(F)ccc2cc(O)cc(-c3nc4c5c(nc(OC[C@@]67CCCN6C[C@H](F)C7)nc5c3F)N3C[C@H]5CC[C@H](N5)[C@H]3CO4)c12 [Crystal form K]: Off-white solid
- CCc1c(F)ccc2cc(O)cc(-c3nc4c5c(nc(OC[C@@]67CCCN6C[C@H](F)C7)nc5c3F)N3C[C@H]5CC[C@H](N5)[C@H]3CO4)c12 [Crystal form A]: Pale yellow solid
- CCc1c(F)ccc2cc(O)cc(-c3nc4c5c(nc(OC[C@@]67CCCN6C[C@H](F)C7)nc5c3F)N3C[C@H]5CC[C@H](N5)[C@H]3CO4)c12 [Crystal form B]: Pale yellow solid
- CCc1c(F)ccc2cc(O)cc(-c3nc4c5c(nc(OC[C@@]67CCCN6C[C@H](F)C7)nc5c3F)N3C[C@H]5CC[C@H](N5)[C@H]3CO4)c12 [Crystal form C]: Pale yellow solid

// switching to the query compound
Data request: Which Color and state value belongs to CCc1c(F)ccc2cc(O)cc(-c3nc4c5c(nc(OC[C@@]67CCCN6C[C@H](F)C7)nc5c3F)N3C[C@H]5CC[C@H](N5)[C@H]3CO4)c12 [Crystal form I] ?
Data returned: Off-white solid
